Listed substances paired with reported Percent Absorbed
Tested on: immune cells
ASSAY_EXPLANATION: Binding of albumin fragments to immune cells on the Artificial Cell Surface column (ACS), MALDI-TOF
Parameters: species or system human
ASSAY_CONTEXT: Asp-N-generated fragments of denatured human serum albumin; MALDI TOF

Before answering, review these 3 worked examples.
                                  substance   val
0  230 (YLSVVLNQLCVLHEKTPVSDRVTKCCCTESLVNRRPFSALEV; listed as Homo sapiens) [compound 230]   37%
1  222 (DKLCTVATLRETYGEM; listed as Homo sapiens) [compound 222]   65%
2  229 (RVTKCCTESLVNRRPCFSALEVDETYVPKEFNAETFTFHA; listed as Homo sapiens) [compound 229]  100%

Hey, immune cells data for 226 (LAKYICENQDSISSKLKECCEKPLLEKHCIAEVEN; listed as Homo sapiens) [compound 226] : Percent Absorbed came out at 100%

Fill in: immune cells Percent Absorbed for 220 (DETYVPKEFNAETFTHA; listed as Homo sapiens) [compound 220] = 86%

Item: 219 (DRVTKCCTESLVNRRPCFSALEV; listed as Homo sapiens) [compound 219] | System: immune cells | Percent Absorbed: 87%

224 (KLCTVATLRETYGEMADCCAKQEPERNECFLQHK; listed as Homo sapiens) [compound 224] tested on immune cells gave Percent Absorbed: 100%

====

Tested on: PBMCs from a healthy control
ASSAY_EXPLANATION: PBMC activation (CD69, CD71) by flow cytometry in RPMI plus 10% human AB serum
Assay type: cell-based
ASSAY_CONTEXT: 40 μg/mL; 24 hours
OBSERVATION_TYPE: PBMC activation, cells with enhanced CD69

>>> print(df.to_string())
                    ordered_residues                val
0  KKLDTVMVKLQLMTER [compound 30680]  did not stimulate
1  KKLDTFFVDLSLFTER [compound 31138]  did not stimulate
2  KSLDTFFVKLSLFTER [compound 30864]  did not stimulate
3  KKLDTFFVKLSLFTFR [compound 30685]  did not stimulate

// moving on: another record for PBMC activation, cells with enhanced CD69
The measured PBMC activation, cells with enhanced CD69 associated with KKLDTFFVNLSLFTER [compound 31136] reads did not stimulate

====

TEST_SYSTEM: P3028 (Homo sapiens)
ASSAY_EXPLANATION: PEPSCAN rampo assay: binding of P3028 to support-bound peptides, sandwich ELISA
ASSAY_CONTEXT: binding of P3028 to peptide on solid phase
Quick reference for RAMPO Score among some substances
# respond with the number and nothing more

Solved entries (count: 6):
>>> df
                               substance           test_system  observation_type  val
0  403 (KKLDTFFVKLSLFTER) [compound 403]  P3028 (Homo sapiens)       RAMPO Score  428
1  399 (KKLDTFFVKLSLFTER) [compound 399]  P3028 (Homo sapiens)       RAMPO Score  442
2  400 (KKLDTFFVKLSLFTER) [compound 400]  P3028 (Homo sapiens)       RAMPO Score  437
3  428 (KKLDTFFVKLSLFTER) [compound 428]  P3028 (Homo sapiens)       RAMPO Score  375
4  406 (KKLDTFFVKLSLFTER) [compound 406]  P3028 (Homo sapiens)       RAMPO Score  424
5  396 (KKLDTFFVKLSLFTER) [compound 396]  P3028 (Homo sapiens)       RAMPO Score  460

Here 487 (KKLDTFFVKLSLFTER) [compound 487] was tested on P3028 (Homo sapiens), and its RAMPO Score came to 308

Bench note, P3028 (Homo sapiens): entry 430 (KKLDTFFVKLSLFTER) [compound 430] , its RAMPO Score = 371

Bench note, P3028 (Homo sapiens): 391 (KKLDTFFVKLSLFTER) [compound 391] , RAMPO Score reads 366

Measured on P3028 (Homo sapiens), 414 (KKLDTFFVKLSLFTER) [compound 414] has a documented RAMPO Score of 402

Case 427 (KKLDTFFVKLSLFTER) [compound 427] , P3028 (Homo sapiens), RAMPO Score recorded as 377

Form field, RAMPO Score with P3028 (Homo sapiens), item 476 (KKLDTFFVKLSLFTER) [compound 476] : 319

====

TEST_SYSTEM: P3028 (Homo sapiens)
ASSAY_EXPLANATION: PEPSCAN rampo assay: binding of P3028 to support-bound peptides, sandwich ELISA
ASSAY_CONTEXT: binding of P3028 to peptide on solid phase
Source text: Based on the ability of P28R to bind the P3028 sequence/structure, unblock the LFA-1 receptor, and ameliorate the P3028 sequence/structure-dependent immunosuppression, P28R was used as a template compound to identify additional compounds that bind to and sequester P3028. […] The binding of the candidate inhibitors to P3028 was detected by a sandwich ELISA, where a rabbit anti-mouse peroxidase (rampo) secondary antibody was employed (see Example 12). […]
OBSERVATION_TYPE: RAMPO Score
Please reply with the number alone, leaving off any unit.

Field: example entries. Status: answers known.
                               substance  val
0  442 (KKLDTFFVKLSLFTER) [compound 442]  348
1  516 (KKLDTFFVKLSLFTER) [compound 516]  260
2  398 (KKLDTFFVKLSLFTER) [compound 398]  445

# ---- query substance ----
// RAMPO Score lookup, substance = 408 (KKLDTFFVKLSLFTER) [compound 408] , result: 414
